# TARGET DESC: T1, Recombinant soluble E protein (0.8E-His) from DENV-2 (DENV-2, UniProt P14340 281-675)
# T1 construct: also called DENV-2 E protein; DV2
# TEST METHOD NOTES: SPR, Biacore T200
ASSAY READOUT: binding result

>>> observed_result("DG_3CH992-SG182/3CL119-SK1 (antibody, V domains shown) VH: QVQLVQSGAEVKKPGASVKVSCKASGYTFTSYYIHWVRQAPGQGLEWMGVINPRGGSRRSAQKFQGRVTMTRDTSTSTVYMELSSLRSEDTAVYYCARGGRALFYDSYTTPFDGGSWWFDPWGQGSLVTVSS VL: DIQLTQSPSSLSASVGDRVTFTCQASQEIRKYLNWYQQKPGKAPKLLIYDASNLKTGVPSRFSGSGSGTDFTFTISSLQPEDVATYYCQQFDDLPITFGQGTRLQIKR")
"binds"
>>> observed_result("DG_3CH1047-SG182/3CL666-SK1 (antibody, V domains shown) VH: QVQLVQSGPDVEKPGASVKVSCKASGYTFTSYYMHWVRQAPGQGLEWMGVINPRGGSRRSAQKFQGRITMTRDTSTSTVYMELSSLRSEDTAVYYCARGGEALFYDSYTTPFDGGSWWFDPWGQGSLVTVSS VL: DIQLTQSPSSLSASVGDRVTITCQASQEIRKYLNWYQQKPGKAPKLLIYDASNLKTGVPSRFSGSGSGTDFTLTISSLQPEDVATYYCQQFDDLPITFGQGTRLQIKR")
"binds"
>>> observed_result("DG_3CH1049-SG182/3CL012-SK1 (antibody, V domains shown) VH: QVQLVQSGAEVKKPGASVKVSCKASGYTFTSYYMHWVRQAPGQGLEWMGVINPRGGSRRSAQKFQGRVTMTRDTSTSTVYMELSSLRSEDTAVYYCARGGEALFYDSYTTPFDGGSWWFDPWGQGSLVTVSS VL: DIQLTQSPSSLSASVGDRVTFTCQASQDIRKYLNWYQQKPGKAPKLLIYDASNLKTGVPSRFSGSGSGTDFTFTISSLQPEDVATYYCQQFEDLPITFGQGTRLQIKR")
"binds"
